# protocol_details: TIMS collisional cross section (CCS, N2) of the lipid ion; higher = larger ion cross section
# measurement_conditions: sample type: Liver; ionization mode: positive; one isomer drawn
observed_property: TIMS collisional cross section (Å²)

{"columns": ["compound", "units_text", "TIMS collisional cross section"],
 "data": [
  ["CCCCC/C=C\\C/C=C\\C/C=C\\C/C=C\\CCCCCC(=O)O[C@@H](CO)COC(=O)CCCCCCC/C=C\\C/C=C\\CCCCC [DG 18:2_22:4_0:0] (ion (formula + adduct): [C43H72O5+NH4] 1+)", "Å²", 270.8],
  ["CCCCC/C=C\\C/C=C\\C/C=C\\C/C=C\\CCCCCC(=O)OC[C@@H](COC(=O)CCCCCCC/C=C\\CCCCCCCC)OC(=O)CCCCCCC/C=C\\CCCCCCCC [TG 18:1_18:1_22:4] (ion (formula + adduct): [C61H106O6+NH4] 1+)", "Å²", 334.9],
  ["CCCCCCCC/C=C\\CCCCCCCC(=O)O[C@H](CO/C=C\\CCCCCCCCCCCCCC)COP(=O)(O)OCCN [PE P- 16:0@_18:1] (ion (formula + adduct): [C39H76NO7P+H] 1+)", "Å²", 274.1],
  ["CCCCC/C=C\\C/C=C\\C/C=C\\CCCCCCC(=O)O[C@H](COC(=O)CCCC/C=C\\C/C=C\\C/C=C\\CCCCC)COP(=O)([O-])OCC[N+](C)(C)C [PC 18:3_20:3@] (ion (formula + adduct): [C46H80NO8P+H] 1+)", "Å²", 293.2],
  ["CCCCCCCC/C=C\\CCCCCCCC(=O)O[C@H](COC(=O)CCCCCCCCCCCCCCC)COC(=O)CCCCCCCCCCCCCCCCCCC [TG 16:0_18:1_20:0] (ion (formula + adduct): [C57H108O6+NH4] 1+)", "Å²", 330.6],
  ["CCCCC/C=C\\C/C=C\\CCCCCCCC(=O)O[C@H](COC(=O)CCCCCCC/C=C\\CCCCCCCC)COC(=O)CCCCCCCCCCC/C=C\\CCCCCCCC [TG 18:1_18:2_22:1] (ion (formula + adduct): [C61H110O6+NH4] 1+)", "Å²", 335.3],
  ["CCCCCCCCCCCCC/C=C/[C@@H](O)[C@H](CO)NC(=O)CCCCCCCCCCCCCCCCCCCCCC [Cer d18:1_23:0@] (ion (formula + adduct): [C41H81NO3+H] 1+)", "Å²", 277.5],
  ["CCCCCCCCCCCCC/C=C/[C@@H](O)[C@H](CO)NC(=O)CCCCCCCCCCCCCCCCCCCCC [Cer d18:1_22:0@] (ion (formula + adduct): [C40H79NO3+H] 1+)", "Å²", 274.9],
  ["CCCCC/C=C\\C/C=C\\C/C=C\\CCCCC(=O)OC[C@@H](COC(=O)CCCCCCCCCCCCC)OC(=O)CCCCCCC/C=C\\C/C=C\\CCCCC [TG 14:0_18:2_18:3] (ion (formula + adduct): [C53H92O6+NH4] 1+)", "Å²", 308.7]
]}

---

# protocol_details: TIMS collisional cross section (CCS, N2) of the lipid ion; higher = larger ion cross section
# measurement_conditions: sample type: plasma; ionization mode: positive; one isomer drawn
observed_property: TIMS collisional cross section (Å²)

{"columns": ["compound", "units_text", "TIMS collisional cross section"],
 "data": [
  ["CCCCCC/C=C\\CCCCCCCC(=O)O[C@@H](COC(=O)CCCCCCC/C=C\\CCCCCCCC)COC(=O)CCCCCCCCCCCCC [TG 14:0_16:1_18:1] (ion (formula + adduct): [C51H94O6+NH4] 1+)", "Å²", 309.45],
  ["CC/C=C\\C/C=C\\C/C=C\\CCCCCCCC(=O)OC[C@@H](O)COP(=O)([O-])OCC[N+](C)(C)C [LPC 18:3] (ion (formula + adduct): [C26H48NO7P+H] 1+)", "Å²", 224.9],
  ["CCCCC/C=C\\C/C=C\\CCCCCCCC(=O)OC[C@@H](COC(=O)CCCCCCC/C=C\\CCCCCCC)OC(=O)CCCCCCC/C=C\\CCCCCCCC [TG 17:1_18:1_18:2] (ion (formula + adduct): [C56H100O6+NH4] 1+)", "Å²", 320.6],
  ["CCCCCCCCCCCCCCCCCCCCCC(=O)OC[C@@H](COC(=O)CCCCCCCCCCCCCCCCC)OC(=O)CCCCCCCCCCCCCCCCCCCC [TG 18:0_21:0_22:0] (ion (formula + adduct): [C64H124O6+NH4] 1+)", "Å²", 352.7],
  ["CC/C=C\\C/C=C\\C/C=C\\C/C=C\\C/C=C\\C/C=C\\CCC(=O)OC[C@@H](O)COP(=O)([O-])OCC[N+](C)(C)C [LPC 22:6] (ion (formula + adduct): [C30H50NO7P+H] 1+)", "Å²", 233.5],
  ["CC(C)CCC[C@@H](C)[C@H]1CC[C@H]2C3=CC[C@H]4[C@](C)(C=O)[C@@H](O)CC[C@]4(C)[C@H]3CC[C@]12C (ion (formula + adduct): [C29H48O2+H] 1+)", "Å²", 219.5],
  ["CCCCCCCC/C=C\\CCCCCCCC(=O)OC[C@@H](COC(=O)CCCCCCCCCCCCC)OC(=O)CCCCCCCCCCCCCCC [TG 14:0_16:0_18:1] (ion (formula + adduct): [C51H96O6+NH4] 1+)", "Å²", 312.07],
  ["CCCCC/C=C\\C/C=C\\C/C=C\\C/C=C\\CCCCCC(=O)OC[C@@H](COC(=O)CCCCCCC/C=C\\CCCCCCCC)OC(=O)CCCCCCC/C=C\\C/C=C\\CCCCC [TG 18:1_18:2_22:4] (ion (formula + adduct): [C61H104O6+NH4] 1+)", "Å²", 332.1],
  ["CCCCC/C=C\\C/C=C\\C/C=C\\C/C=C\\CCCC(=O)O[C@H](COC(=O)CCCCCCC/C=C\\CCCCCC)COP(=O)([O-])OCC[N+](C)(C)C [PC 16:1_20:4] (ion (formula + adduct): [C44H78NO8P+H] 1+)", "Å²", 286.4],
  ["CCCCC/C=C\\C/C=C\\CCCCCCCCCCCC(=O)OC[C@@H](O)COP(=O)([O-])OCC[N+](C)(C)C [LPC 22:2] (ion (formula + adduct): [C30H58NO7P+H] 1+)", "Å²", 242],
  ["CCCCCCCCCCCCCCCCCCCCCC(=O)OC[C@@H](COC(=O)CCCCCCCCCCCCCC)OC(=O)CCCCCCCCCCCCCCC [TG 15:0_16:0_22:0] (ion (formula + adduct): [C56H108O6+NH4] 1+)", "Å²", 328.3],
  ["CCCCCCCC/C=C/CCCCCCCC(=O)OC[C@H](COP(=O)(O)OCCN)OC(=O)CCCCCCC/C=C/CCCCCCCC [PE 18:1_18:1] (ion (formula + adduct): [C41H78NO8P+Na] 1+)", "Å²", 280.6],
  ["CCCCCCCCCCCCCCCC(=O)OC[C@@H](COC(=O)CCCCCCCCCCC)OC(=O)CCCCCCCCCCCCC [TG 12:0_14:0_16:0] (ion (formula + adduct): [C45H86O6+NH4] 1+)", "Å²", 295.5],
  ["CCCCC/C=C\\C/C=C\\C/C=C\\C/C=C\\CCCC(=O)O[C@H](COCCCCCCCCCCCCCCCC)COP(=O)(O)OCCN [PE O- 16:0@_20:4] (ion (formula + adduct): [C41H76NO7P+H] 1+)", "Å²", 275.8],
  ["CCCCC/C=C\\C=C/CCCCCCCCC(=O)O[C@H](COC(=O)CCCCCCCCCCCCCCCCC)COP(=O)([O-])OCC[N+](C)(C)C [PC 18:0@_18:2] (ion (formula + adduct): [C44H84NO8P+H] 1+)", "Å²", 292.6],
  ["CCCCCCCCCCCCCCC(=O)O[C@H](COC(=O)CCCCCCCCCCC)COP(=O)([O-])OCC[N+](C)(C)C [PC 12:0_15:0@] (ion (formula + adduct): [C35H70NO8P+H] 1+)", "Å²", 269.3],
  ["CCCCCCCCCCCCCCCCCCCCCCCC(=O)OC[C@@H](O)COP(=O)([O-])OCC[N+](C)(C)C [LPC 24:0] (ion (formula + adduct): [C32H66NO7P+H] 1+)", "Å²", 259.1],
  ["CCCCCCCC/C=C\\C/C=C\\C/C=C\\CCCC(=O)O[C@H](COC(=O)CCCCCCCCCCCCCCC)COP(=O)([O-])OCC[N+](C)(C)C [PC 16:0_20:3] (ion (formula + adduct): [C44H82NO8P+H] 1+)", "Å²", 290.5]
]}
